System: SF-295
Assay: Cytotoxicity against human SF295 cells after 72 hrs by MTT assay
Type: functional, cell-based
Settings: SF-295, 72 h
pIC50: −log10 of the molar value.
METRIC_NAME: pIC50

>  <MOLECULE>
CC(C)CC1=C(OC2(CC(C)C)C(=O)C(=O)c3ccccc3C2=O)C(=O)c2ccccc2C1=O (stereo unspecified)

>  <pIC50>
< 4.96

$$$$
>  <MOLECULE>
O=C1c2ccccc2C(=O)c2c1ccc1nc(-c3cccc(O)c3)[nH]c21

>  <pIC50>
< 4.83

$$$$
>  <MOLECULE>
CC1(C)OC2=C(C(=O)C(=O)c3ccccc32)[C@H](n2cc(-c3ccc(Br)cc3)nn2)[C@H]1Br

>  <pIC50>
5.63

$$$$

Batch lookup, pIC50 per entry.
1. O=C1c2ccccc2C(=O)c2c1ccc1nc(-c3ccccc3)[nH]c21
2. COc1ccc(-c2cn([C@H]3C4=C(OC(C)(C)[C@@H]3Br)c3ccccc3C(=O)C4=O)nn2)cc1

stdout:
1. < 4.81
2. 5.52

Batch lookup, pIC50 per entry.
1. CC(C)CCC1=C(O)C(=O)C2=C(CCCC2)C1=O
2. O=C1c2ccccc2C(=O)c2c1ccc1nc(-c3ccccc3O)[nH]c21
3. CC(C)=CCC1=C(OC2(CC=C(C)C)C(=O)C(=O)c3ccccc3C2=O)C(=O)c2ccccc2C1=O (stereo unspecified)
4. CC(C)CC1=C(OC2(CC(C)C)C(=O)C(=O)C3=C(CCCC3)C2=O)C(=O)C2=C(CCCC2)C1=O (stereo unspecified)

stdout:
1. < 4.70
2. 5.41
3. < 4.98
4. < 4.97

Batch lookup, pIC50 per entry.
1. CCCC1=C(O)C(=O)C2=C(CCCC2)C1=O
2. CC1(C)OC2=C(C(=O)C(=O)c3ccccc32)[C@H](n2cc(-c3ccccc3)nn2)[C@H]1Br
3. COc1cc(-c2nc3ccc4c(c3[nH]2)C(=O)c2ccccc2C4=O)ccc1O
4. CC1(C)OC2C(=O)c3ccccc3C(=O)C2[C@@H](N=[N+]=[N-])[C@@H]1Br (stereo partly specified)
5. CC1=C(OC2(C)C(=O)c3ccccc3C2=O)C(=O)c2ccccc2C1=O
6. CC(C)CC1=C(O)C(=O)C2=C(CCCC2)C1=O
7. Cc1ccc(-c2nc3ccc4c(c3[nH]2)C(=O)c2ccccc2C4=O)cc1
8. CCCC1=C(OC2(CCC)C(=O)C(=O)c3ccccc3C2=O)C(=O)c2ccccc2C1=O (stereo unspecified)

stdout:
< 4.64
5.81
< 4.87
4.86
< 4.84
< 4.67
< 4.83
< 4.94

---

Test system: HL-60
Assay: Cytotoxicity against human HL60 cells after 72 hrs by MTT assay
Assay type: functional, cell-based
Conditions: HL-60, 72 h
pIC50: −log10 of the molar value.
Please respond with reported pIC50 for every item in the list.

>  <COMPOUND>
O=C1c2ccccc2C(=O)c2c1ccc1nc(-c3ccccc3F)[nH]c21

>  <pIC50>
< 4.84

$$$$

Batch lookup, pIC50 per entry.
1. CC(C)CCC1=C(O)C(=O)c2ccccc2C1=O
2. CC(C)CCC1=C(O)C(=O)C2=C(CCCC2)C1=O
3. Cc1ccc(-c2nc3ccc4c(c3[nH]2)C(=O)c2ccccc2C4=O)cc1
4. CC(C)CCC1=C(OC2(CCC(C)C)C(=O)C(=O)c3ccccc3C2=O)C(=O)c2ccccc2C1=O (stereo not given)

stdout:
1. < 4.69
2. < 4.70
3. < 4.83
4. < 4.99
